Reference source for all entries: ChEMBL document CHEMBL4823315

experiment: Half life in cynomolgus monkey at 0.5 mg/kg, po or 0.2 mg/kg, iv; format: ADME, organism-based, Macaca fascicularis; settings: in vivo
Quantity Kind: half-life (min)
One number for each entry, in min.

What half-life value was documented for this compound, NC(=O)c1c(N)ncnc1N1CCC(c2nc(-c3ccc(F)c(C(F)(F)F)c3)cn2CCN2CCC2)CC1 ?
240

====

Biological target: Cytochrome P450 2C8 (Homo sapiens)
Sequence (P10632 whole entry): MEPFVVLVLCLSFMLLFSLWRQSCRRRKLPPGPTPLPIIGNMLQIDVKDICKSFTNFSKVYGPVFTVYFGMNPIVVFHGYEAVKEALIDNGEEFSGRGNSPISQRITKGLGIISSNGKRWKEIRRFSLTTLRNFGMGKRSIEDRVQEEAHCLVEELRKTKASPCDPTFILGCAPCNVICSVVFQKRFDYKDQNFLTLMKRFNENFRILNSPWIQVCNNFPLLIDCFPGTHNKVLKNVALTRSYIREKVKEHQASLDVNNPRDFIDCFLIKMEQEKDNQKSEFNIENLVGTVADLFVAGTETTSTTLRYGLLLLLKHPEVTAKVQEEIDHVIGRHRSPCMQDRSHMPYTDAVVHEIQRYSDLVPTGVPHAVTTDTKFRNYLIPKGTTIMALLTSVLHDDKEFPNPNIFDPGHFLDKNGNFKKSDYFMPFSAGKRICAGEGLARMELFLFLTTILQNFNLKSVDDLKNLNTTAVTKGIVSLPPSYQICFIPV
Assign IC50 to each entry below.

[[record]]
smiles_text = "NC(=O)c1c(N)ncnc1N1CCC(c2nc(-c3ccc(F)c(C(F)(F)F)c3)cn2CCN2CCC2)CC1"
recorded_result = "> 20 µM"


What IC50 value was documented for this molecule, Cn1cc(-c2ccc(F)c(C(F)(F)F)c2)nc1C1CCN(c2ncnc(N)c2-c2ccc(F)cc2)CC1 ?
> 20 µM
